# Tested on: KRas-mediated phosphorylation of ERK in MKN1 cells
# ASSAY_PROCEDURE: Inhibition of KRas-mediated phosphorylation of ERK (Cisbio HTRF pERK), MKN1 cells
# Type: cell-based
# MEASUREMENT_CONTEXT: Homo sapiens, MKN-1
Listed molecules paired with reported IC50

# MOLECULE, ASSAYED_SYSTEM, QUALIFIER, IC50, nM
records = [
    ("C[C@@H]1C[C@@H]1c1c(Cl)cc(O)cc1-c1ncc2c(N3CCCn4nc(C(=O)N(C)C)cc4C3)nc(OC[C@@]34CCCN3C[C@H](F)C4)nc2c1F [Example 933]", "KRas-mediated phosphorylation of ERK in MKN1 cells", "=", 11),
    ("C#Cc1c(F)ccc2cc(O)cc(-c3ncc4c(N5CCC[C@@](C)(O)C5)nc(OC[C@@]56CCCN5[C@@H](CO)CC6)nc4c3F)c12 [Example 809]", "KRas-mediated phosphorylation of ERK in MKN1 cells", "=", 57),
    ("CCc1c(F)ccc2cc(O)cc(-c3ncc4c(N5CCCCC(S(N)(=O)=O)C5)nc(OC[C@@]56CCCN5C[C@H](F)C6)nc4c3F)c12 (stereo partly drawn) [Example 633]", "KRas-mediated phosphorylation of ERK in MKN1 cells", ">", 10000),
    ("CCc1c(F)ccc2cc(O)cc(-c3ncc4c(NCC5(C)CNS(=O)(=O)N5)nc(OC[C@@]56CCCN5C[C@H](F)C6)nc4c3F)c12 (stereo partly drawn) [Example 609]", "KRas-mediated phosphorylation of ERK in MKN1 cells", "=", 92),
    ("CCc1c(F)ccc2cc(O)cc(-c3ncc4c(N5CCCC(O)(C(N)=O)C5)nc(OC[C@@]56CCCN5C[C@H](F)C6)nc4c3F)c12 (stereo partly drawn) [Example 574]", "KRas-mediated phosphorylation of ERK in MKN1 cells", "=", 78),
    ("CCc1c(F)ccc2cc(O)cc(-c3ncc4c(N5CCC[C@@](C)(O)C5)nc(OC[C@@]56CCCN5[C@H](COCC5CCCC5)CC6)nc4c3F)c12 [Example 904]", "KRas-mediated phosphorylation of ERK in MKN1 cells", "=", 4),
]

---

# ASSAYED_SYSTEM: KRas^WT (Homo sapiens, UniProt P01116)
# Construct: Biotinylated KRas (corresponding to amino acids 1-169, produced at Accelegan Inc.); biotin (biotinylated); purchased Accelegan Inc
# Sequence (P01116 1-169 isoform P01116-2): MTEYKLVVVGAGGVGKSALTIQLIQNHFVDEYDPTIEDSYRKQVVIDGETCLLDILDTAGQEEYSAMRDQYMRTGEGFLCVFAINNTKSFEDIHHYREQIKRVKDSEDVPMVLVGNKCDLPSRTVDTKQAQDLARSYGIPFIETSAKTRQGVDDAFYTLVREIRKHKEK
# ASSAY_PROCEDURE: KRas binding assay (TR-FRET tracer displacement), KRas WT
# MEASUREMENT_CONTEXT: TR-FRET tracer displacement, KRas WT
Item-by-item account of IC50

# COMPOUND, RESULT_UNIT, QUALIFIER, IC50
records = [
    ("C[C@@H]1C[C@@H]1c1c(Cl)cc(O)cc1-c1ncc2c(N3CCC[C@]4(C3)NC(=O)NC4=O)nc(OC[C@@]34CCCN3C[C@H](F)C4)nc2c1F [Example 932]", "nM", "<", 2),
    ("C[C@@H]1C[C@@H]1c1c(Cl)cc(O)cc1-c1ncc2c(N3C[C@@H]4C[C@H](C3)[C@H](O)C4)nc(OC[C@@]34CCCN3C[C@H](F)C4)nc2c1F (stereo in doubt) [Example 920]", "nM", "=", 2),
    ("C=C1CN2CCCC2(COc2nc(N3CCCC(C)(O)C3)c3cnc(-c4cc(O)cc5ccc(F)c(CC)c45)c(F)c3n2)C1 (stereo in doubt) [Example 797]", "nM", "<", 2),
    ("Oc1cc(-c2ncc3c(N4C[C@@H]5C[C@H](C4)[C@H](O)C5)nc(OC[C@@]45CCCN4C[C@H](F)C5)nc3c2F)c2ccc(F)cc2c1 [Example 749]", "nM", "=", 34),
    ("CCc1c(F)ccc2cc(O)cc(-c3ncc4c(N5CCCn6nc(C(=O)N(C)C)cc6C5)nc(OCC56CCCN5C/C(=C\\F)C6)nc4c3F)c12 (stereo not drawn) [Example 795]", "nM", "<", 2),
    ("Cc1cc2[nH]nnc2c(-c2ncc3c(N4CCCC5(CNC(=O)N5)C4)nc(OCC45CCCN4CCC5)nc3c2F)c1C (stereo not drawn) [Example 856]", "nM", "=", 2820),
]
